system_tested: Transient receptor potential cation channel subfamily V member 1 (Rattus norvegicus)
protocol_text: Antagonist activity at TRPV1 in Sprague-Dawley rat DRG neurons assessed as inhibition of capsaicin-induced [45]Ca2+ uptake
pIC50: −log10 of the molar value.
Please use the following pIC50 ranges when assigning a class: bottom range = under 6, center range = from 6 up to 7, top range = 7 and over

See these solved cases before continuing.
[[record]]
smiles_repr = "CC(C)(C)c1ccc(CCC(=S)NCc2cc(F)c(NS(C)(=O)=O)c(C#N)c2)cc1"
answer_label = "top range"

[[record]]
smiles_repr = "CC(C)(C)c1ccc(CCC(=S)NCc2ccc(NS(C)(=O)=O)cc2Cl)cc1"
answer_label = "bottom range"

[[record]]
smiles_repr = "Cc1cc(CNC(=S)CCc2ccc(C(C)(C)C)cc2)ccc1NS(C)(=O)=O"
answer_label = "top range"

[[record]]
smiles_repr = "C=Cc1cc(CNC(=S)CCc2ccc(C(C)(C)C)cc2)cc(F)c1NS(C)(=O)=O"
answer_label = "top range"

[[record]]
smiles_repr = "CC(C)(C)c1ccc(CCC(=S)NCc2cc(F)c(NS(C)(=O)=O)c(C3CC3)c2)cc1"
answer_label = "center range"

[[record]]
smiles_repr = "COC(=O)c1cc(CNC(=S)CCc2ccc(C(C)(C)C)cc2)ccc1NS(C)(=O)=O"
answer_label = "bottom range"

[[record]]
smiles_repr = "CC(C)(C)c1ccc(CCC(=S)NCc2ccc(NS(C)(=O)=O)c(C(=O)O)c2)cc1"
answer_label = "bottom range"

[[record]]
smiles_repr = "Cc1cc(CNC(=O)CCc2ccc(C(C)(C)C)cc2)cc(C)c1NS(C)(=O)=O"
answer_label = "center range"

[[record]]
smiles_repr = "CC(C)(C)c1ccc(CCC(=S)NCc2ccc(NS(C)(=O)=O)c(I)c2)cc1"
answer_label = "center range"

[[record]]
smiles_repr = "CC(C)(C)c1ccc(CCC(=S)NCc2ccc(NS(C)(=O)=O)c(C#N)c2)cc1"
answer_label = "top range"


Query: Textbook exercise: identify the category of the compound given here, "Cc1cc(CNC(=S)CCc2ccc(C(C)(C)C)cc2)cc(C)c1NS(C)(=O)=O" , according to its measured value.
Response: bottom range

Query: Textbook exercise: identify the category of the compound given here, "CC(C)(C)c1ccc(CCC(=S)NCc2ccc(NS(C)(=O)=O)c(F)c2)cc1" , according to its measured value.
Response: top range

Query: Textbook exercise: identify the category of the compound given here, "CC(C)(C)c1ccc(CCC(=S)NCc2ccc(NS(C)(=O)=O)cc2C(F)(F)F)cc1" , according to its measured value.
Response: bottom range

Query: Textbook exercise: identify the category of the compound given here, "CC(C)(C)c1ccc(CCC(=O)NCc2cc(F)c(NS(C)(=O)=O)c(C3CC3)c2)cc1" , according to its measured value.
Response: center range

Query: Textbook exercise: identify the category of the compound given here, "CCc1cc(CNC(=S)CCc2ccc(C(C)(C)C)cc2)ccc1NS(C)(=O)=O" , according to its measured value.
Response: center range

----------
system_tested: Transient receptor potential cation channel subfamily V member 1 (Rattus norvegicus, UniProt O35433)
Sequence (O35433 whole entry): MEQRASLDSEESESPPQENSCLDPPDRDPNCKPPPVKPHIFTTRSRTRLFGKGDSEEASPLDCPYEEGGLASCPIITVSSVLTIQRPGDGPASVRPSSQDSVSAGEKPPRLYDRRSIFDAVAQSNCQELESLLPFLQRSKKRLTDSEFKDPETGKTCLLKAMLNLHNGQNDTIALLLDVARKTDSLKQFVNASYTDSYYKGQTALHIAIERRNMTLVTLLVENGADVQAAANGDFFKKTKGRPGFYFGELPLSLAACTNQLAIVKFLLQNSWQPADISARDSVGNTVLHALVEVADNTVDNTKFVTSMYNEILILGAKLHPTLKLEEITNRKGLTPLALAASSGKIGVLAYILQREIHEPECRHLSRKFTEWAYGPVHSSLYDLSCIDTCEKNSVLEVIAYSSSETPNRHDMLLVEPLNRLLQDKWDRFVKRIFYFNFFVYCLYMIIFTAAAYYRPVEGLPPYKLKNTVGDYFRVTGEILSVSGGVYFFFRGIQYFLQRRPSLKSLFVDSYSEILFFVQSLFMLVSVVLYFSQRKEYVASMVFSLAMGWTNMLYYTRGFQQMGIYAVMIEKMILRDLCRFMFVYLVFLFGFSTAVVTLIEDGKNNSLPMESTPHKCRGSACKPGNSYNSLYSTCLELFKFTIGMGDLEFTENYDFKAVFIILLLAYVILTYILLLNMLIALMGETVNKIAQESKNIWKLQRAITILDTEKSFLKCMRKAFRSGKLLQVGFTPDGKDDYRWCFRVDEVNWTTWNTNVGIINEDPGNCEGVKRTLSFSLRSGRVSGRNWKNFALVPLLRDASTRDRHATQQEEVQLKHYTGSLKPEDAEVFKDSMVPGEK
protocol_text: Antagonist activity at TRPV1 in Sprague-Dawley rat DRG neurons assessed as inhibition of capsaicin-induced [45]Ca2+ uptake
Type: functional
Response field label takes True when IC50 is strictly below 100 nM and False in all other cases.

[[record]]
smiles_repr = "CC(C)(C)c1ccc(CCC(=S)NCc2ccc(NS(C)(=O)=O)c(C(F)(F)F)c2)cc1"
answer_label = "False"


Query: Is it true that IC50 reported for "C#Cc1cc(CNC(=S)CCc2ccc(C(C)(C)C)cc2)cc(F)c1NS(C)(=O)=O" is less than 100 nM?
Response: True

Query: Is it true that IC50 reported for "CC(=O)c1cc(CNC(=S)CCc2ccc(C(C)(C)C)cc2)ccc1NS(C)(=O)=O" is less than 100 nM?
Response: False

Query: Is it true that IC50 reported for "Cc1cc(CNC(=S)CCc2ccc(C(C)(C)C)cc2)cc(Cl)c1NS(C)(=O)=O" is less than 100 nM?
Response: True

Query: Is it true that IC50 reported for "CC(C)(C)c1ccc(CCC(=S)NCc2ccc(NS(C)(=O)=O)c(Cl)c2)cc1" is less than 100 nM?
Response: True

Query: Is it true that IC50 reported for "CC(C)(C)c1ccc(CCC(=S)NCc2ccc(NS(C)(=O)=O)c([N+](=O)[O-])c2)cc1" is less than 100 nM?
Response: True

Query: Is it true that IC50 reported for "C=Cc1cc(CNC(=S)CCc2ccc(C(C)(C)C)cc2)ccc1NS(C)(=O)=O" is less than 100 nM?
Response: True

Cited source: ChEMBL document CHEMBL1153104
